Entries and their residual activity values follow.
System: MKNK1 (human), Q9BUB5 [T385D; 165-205 del]
Sequence (Q9BUB5 whole entry, looked up, stated change not applied): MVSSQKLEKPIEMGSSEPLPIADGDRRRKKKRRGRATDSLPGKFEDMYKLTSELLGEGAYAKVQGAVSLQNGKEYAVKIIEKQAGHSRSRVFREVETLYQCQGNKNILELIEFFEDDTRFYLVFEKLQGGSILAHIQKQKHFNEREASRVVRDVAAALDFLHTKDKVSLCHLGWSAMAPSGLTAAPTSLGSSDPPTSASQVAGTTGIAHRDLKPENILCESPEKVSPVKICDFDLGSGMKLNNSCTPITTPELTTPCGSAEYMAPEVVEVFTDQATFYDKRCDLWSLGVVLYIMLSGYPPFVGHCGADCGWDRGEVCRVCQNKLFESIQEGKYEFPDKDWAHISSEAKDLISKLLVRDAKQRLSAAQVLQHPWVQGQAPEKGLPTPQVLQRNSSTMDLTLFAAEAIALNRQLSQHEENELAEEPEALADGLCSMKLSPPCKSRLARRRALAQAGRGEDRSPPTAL
PROTOCOL NOTES: radiometric filter-binding kinase assay, Kinase HotSpot
ASSAY SETUP: compound 0.5 µM; ATP 10 µM
Please give a number only; it is taken to be in %.

Known residual activity results, listed for orientation:
ENTRY SMILES: CCC(=O)Nc1ccc2ncnc(Nc3cccc(Br)c3)c2c1
residual activity, %: 82.8
//
ENTRY SMILES: O=C1NC(=O)c2cc(Nc3ccc(F)cc3)c(Nc3ccc(F)cc3)cc21
residual activity, %: 103

Here's the next entry for you.
Query residual activity on MKNK1 (human), Q9BUB5 [T385D; 165-205 del] for COc1ccc2c(c[n+](C)c3c4cc5c(cc4ccc23)OCO5)c1OC
102

----------
TESTED ON: TEK (human)
PROTOCOL NOTES: radiometric filter-binding kinase assay, Kinase HotSpot
ASSAY SETUP: compound 0.5 µM; ATP 10 µM
OBSERVED PROPERTY: residual activity
The number alone won't do; follow it with the unit.

Known residual activity results, listed for orientation:
ENTRY SMILES: O=C1Nc2ccc(Br)cc2/C1=C\c1cc2c([nH]1)CCCC2
TESTED ON: TEK (human)
residual activity: 98.2%
--
ENTRY SMILES: CN(C)c1ccc(/C=C2\C(=O)Nc3ccccc32)cc1
TESTED ON: TEK (human)
residual activity: 102%
--
ENTRY SMILES: O=C(c1cc2cc(O)ccc2[nH]1)c1cc2cc(O)ccc2[nH]1
TESTED ON: TEK (human)
residual activity: 104%
--
ENTRY SMILES: Cc1cccc(-c2nc(C(C)(C)C)[nH]c2-c2ccc3c(c2)OCO3)n1
TESTED ON: TEK (human)
residual activity: 95.2%
--
ENTRY SMILES: N#Cc1c[nH]c2c[nH]/c(=N\Cc3cccnc3)cc2/c1=N\c1ccc(F)c(Cl)c1
TESTED ON: TEK (human)
residual activity: 95.5%
--
ENTRY SMILES: CN(C)S(=O)(=O)c1ccc2c(c1)/C(=C/c1cc3c([nH]1)CCCC3)C(=O)N2
TESTED ON: TEK (human)
residual activity: 95.4%
--
ENTRY SMILES: O=C1c2ccccc2-c2nc3nnnn3nc21
TESTED ON: TEK (human)
residual activity: 4.27%
--
ENTRY SMILES: COc1cc(Nc2c(C#N)cnc3cc(OCCCN4CCN(C)CC4)c(OC)cc23)c(Cl)cc1Cl
TESTED ON: TEK (human)
residual activity: 82.6%

Here's the next entry for you.
# query: residual activity of entry N#C/C(=C\c1ccc(O)c(O)c1)C(=O)NCc1ccccc1
95.1%

----------
TESTED ON: MAPKAPK2 (human) (UniProt P49137)
Sequence (P49137 whole entry, looked up): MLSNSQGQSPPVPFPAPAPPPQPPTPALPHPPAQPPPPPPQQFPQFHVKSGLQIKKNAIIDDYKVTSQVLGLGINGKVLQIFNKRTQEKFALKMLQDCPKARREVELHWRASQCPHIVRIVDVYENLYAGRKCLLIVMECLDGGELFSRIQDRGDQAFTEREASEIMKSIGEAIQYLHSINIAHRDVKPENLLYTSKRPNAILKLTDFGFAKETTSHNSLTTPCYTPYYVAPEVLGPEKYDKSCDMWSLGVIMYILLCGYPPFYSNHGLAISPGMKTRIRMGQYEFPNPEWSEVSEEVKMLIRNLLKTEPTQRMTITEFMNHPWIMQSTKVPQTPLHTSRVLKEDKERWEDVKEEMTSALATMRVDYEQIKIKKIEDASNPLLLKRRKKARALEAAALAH
PROTOCOL NOTES: radiometric filter-binding kinase assay, Kinase HotSpot
ASSAY SETUP: compound 0.5 µM; ATP 10 µM
Entries and their residual activity values follow.
Please give a number only; it is taken to be in %.

# query: residual activity of entry Cn1c2ccccc2c2c3c(c4c5ccccc5n(CCC#N)c4c21)CNC3=O
109

# query: residual activity of entry Cc1cncc2cccc(S(=O)(=O)N3CCCN(C(=O)CN)C[C@H]3C)c12
103

----------
Entries and their residual activity values follow.
TESTED ON: UniProtKB P33981
Sequence (P33981 whole entry, looked up): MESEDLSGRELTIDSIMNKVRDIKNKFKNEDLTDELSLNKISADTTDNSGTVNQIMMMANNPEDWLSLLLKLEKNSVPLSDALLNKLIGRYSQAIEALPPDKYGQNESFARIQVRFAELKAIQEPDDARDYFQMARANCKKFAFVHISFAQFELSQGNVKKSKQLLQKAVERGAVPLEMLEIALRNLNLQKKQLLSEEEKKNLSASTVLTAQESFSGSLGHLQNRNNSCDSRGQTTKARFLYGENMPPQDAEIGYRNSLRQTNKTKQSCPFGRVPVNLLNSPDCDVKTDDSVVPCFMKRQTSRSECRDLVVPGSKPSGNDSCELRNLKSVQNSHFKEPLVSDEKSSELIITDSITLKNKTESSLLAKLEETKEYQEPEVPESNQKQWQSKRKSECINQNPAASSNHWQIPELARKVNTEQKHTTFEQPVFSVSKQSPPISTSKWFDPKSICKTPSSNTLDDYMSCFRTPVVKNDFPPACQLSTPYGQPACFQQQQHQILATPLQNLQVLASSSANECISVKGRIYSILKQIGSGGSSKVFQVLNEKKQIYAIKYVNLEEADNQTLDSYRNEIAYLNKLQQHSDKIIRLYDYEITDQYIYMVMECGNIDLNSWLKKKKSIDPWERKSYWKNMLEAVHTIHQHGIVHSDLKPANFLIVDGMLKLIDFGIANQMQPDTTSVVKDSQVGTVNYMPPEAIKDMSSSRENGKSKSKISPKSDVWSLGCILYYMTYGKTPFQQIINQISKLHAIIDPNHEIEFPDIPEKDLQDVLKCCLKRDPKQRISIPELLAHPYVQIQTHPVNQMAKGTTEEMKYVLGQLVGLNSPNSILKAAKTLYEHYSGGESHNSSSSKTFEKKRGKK
PROTOCOL NOTES: radiometric filter-binding kinase assay, Kinase HotSpot
ASSAY SETUP: compound 0.5 µM; ATP 10 µM
The number alone won't do; follow it with the unit.

Known residual activity results, listed for orientation:
ENTRY SMILES: CS(=O)(=O)CCNCc1ccc(-c2ccc3ncnc(Nc4ccc(OCc5cccc(F)c5)c(Cl)c4)c3c2)o1
residual activity: 102%
//
ENTRY SMILES: COc1ccc(S(=O)(=O)N(CCO)c2ccccc2CN(C)C/C=C/c2ccc(Cl)cc2)cc1
residual activity: 83.3%
//
ENTRY SMILES: COc1cc2ncnc(Nc3ccc(OCc4ccccc4)cc3)c2cc1OC
residual activity: 96.8%
//
ENTRY SMILES: O=C1NC(=O)c2c1c1c3ccccc3[nH]c1n1cncc21
residual activity: 79%
//
ENTRY SMILES: CC(C)(C)c1cc(C=C(C#N)C#N)cc(Br)c1O
residual activity: 101%

# query: residual activity of entry CN(C)c1ccc(/C=C2\C(=O)Nc3ccccc32)cc1
99.7%

# query: residual activity of entry Fc1ccc(-c2nc3n(c2-c2ccncc2)CCS3)cc1
100%

# query: residual activity of entry Cc1cccc(-c2nc(C(C)(C)C)[nH]c2-c2ccc3c(c2)OCO3)n1
89%

# query: residual activity of entry O=C1Nc2ccc(Br)cc2/C1=C\c1cc2c([nH]1)CCCC2
95.1%

# query: residual activity of entry C[C@@H]1CCN(C(=O)CC#N)C[C@@H]1N(C)c1ncnc2[nH]ccc12
108%

----------
TESTED ON: PIM1 (human)
PROTOCOL NOTES: radiometric filter-binding kinase assay, Kinase HotSpot
ASSAY SETUP: compound 0.5 µM; ATP 10 µM
Entries and their residual activity values follow.
Please give a number only; it is taken to be in %.

Known residual activity results, listed for orientation:
ENTRY SMILES: COc1ccc(S(=O)(=O)N(CCO)c2ccccc2CN(C)C/C=C/c2ccc(Cl)cc2)cc1
residual activity, %: 104
//
ENTRY SMILES: CN(C)c1ccc(/C=C2\C(=O)Nc3ccccc32)cc1
residual activity, %: 101

Here's the next entry for you.
# query: residual activity of entry CS(=O)(=O)CCNCc1ccc(-c2ccc3ncnc(Nc4ccc(OCc5cccc(F)c5)c(Cl)c4)c3c2)o1
99

----------
Entries and their residual activity values follow.
TESTED ON: RPS6KA5 KD2 (human) (UniProt O75582)
Sequence (O75582 whole entry, looked up): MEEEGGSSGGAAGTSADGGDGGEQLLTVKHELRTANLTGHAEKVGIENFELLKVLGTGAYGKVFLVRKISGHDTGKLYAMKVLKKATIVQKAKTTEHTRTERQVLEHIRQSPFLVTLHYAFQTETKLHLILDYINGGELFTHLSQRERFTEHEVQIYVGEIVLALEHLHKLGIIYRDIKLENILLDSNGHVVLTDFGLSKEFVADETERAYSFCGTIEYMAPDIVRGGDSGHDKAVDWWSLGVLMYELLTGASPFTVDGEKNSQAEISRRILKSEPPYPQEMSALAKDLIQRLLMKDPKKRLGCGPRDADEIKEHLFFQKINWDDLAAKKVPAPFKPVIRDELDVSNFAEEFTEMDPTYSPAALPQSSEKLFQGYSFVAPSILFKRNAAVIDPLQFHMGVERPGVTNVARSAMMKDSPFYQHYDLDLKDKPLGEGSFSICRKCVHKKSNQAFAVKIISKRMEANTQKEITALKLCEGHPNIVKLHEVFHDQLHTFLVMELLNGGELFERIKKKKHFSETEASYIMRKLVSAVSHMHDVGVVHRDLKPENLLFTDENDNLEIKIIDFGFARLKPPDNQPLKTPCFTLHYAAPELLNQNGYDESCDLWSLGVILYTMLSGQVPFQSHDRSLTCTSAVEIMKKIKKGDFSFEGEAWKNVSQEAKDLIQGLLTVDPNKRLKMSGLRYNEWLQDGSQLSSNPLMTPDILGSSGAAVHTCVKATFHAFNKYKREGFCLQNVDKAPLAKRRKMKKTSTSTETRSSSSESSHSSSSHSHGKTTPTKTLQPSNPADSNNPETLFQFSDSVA
PROTOCOL NOTES: radiometric filter-binding kinase assay, Kinase HotSpot
ASSAY SETUP: compound 0.5 µM; ATP 10 µM
Please give a number only; it is taken to be in %.

ENTRY SMILES: c1ccc2c(-c3ccncc3)c[nH]c2c1
residual activity / %: 96.7
--
ENTRY SMILES: O=C1NC(=O)c2c1c1c3ccccc3[nH]c1n1cncc21
residual activity / %: 87.6
--
ENTRY SMILES: CN(C)S(=O)(=O)c1ccc2c(c1)/C(=C/c1cc3c([nH]1)CCCC3)C(=O)N2
residual activity / %: 106

# query: residual activity of entry COc1cc(Nc2c(C#N)cnc3cc(OCCCN4CCN(C)CC4)c(OC)cc23)c(Cl)cc1Cl
90.8

# query: residual activity of entry O=C1C(Cl)=C(N2C(=O)CCC2=O)C(=O)c2ccccc21
101

----------
TESTED ON: CDK9 CCNK (human) (UniProt O75909+P50750)
Sequence (O75909 whole entry, looked up): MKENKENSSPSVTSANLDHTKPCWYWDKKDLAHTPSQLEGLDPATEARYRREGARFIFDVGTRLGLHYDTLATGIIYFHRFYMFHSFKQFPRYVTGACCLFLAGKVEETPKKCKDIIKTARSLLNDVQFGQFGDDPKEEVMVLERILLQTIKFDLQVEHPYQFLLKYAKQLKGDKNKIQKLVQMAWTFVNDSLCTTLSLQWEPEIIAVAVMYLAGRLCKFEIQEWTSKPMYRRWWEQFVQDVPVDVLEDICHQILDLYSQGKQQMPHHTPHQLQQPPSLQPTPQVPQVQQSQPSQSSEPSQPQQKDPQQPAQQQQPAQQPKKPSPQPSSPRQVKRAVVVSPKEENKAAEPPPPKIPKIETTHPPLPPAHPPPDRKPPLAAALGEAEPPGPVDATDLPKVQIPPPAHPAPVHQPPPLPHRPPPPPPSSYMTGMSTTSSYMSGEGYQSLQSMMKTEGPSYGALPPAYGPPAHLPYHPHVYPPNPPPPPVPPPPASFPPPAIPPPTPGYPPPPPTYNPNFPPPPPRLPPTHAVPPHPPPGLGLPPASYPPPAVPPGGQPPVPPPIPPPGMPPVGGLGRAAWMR
Sequence (P50750 whole entry, looked up): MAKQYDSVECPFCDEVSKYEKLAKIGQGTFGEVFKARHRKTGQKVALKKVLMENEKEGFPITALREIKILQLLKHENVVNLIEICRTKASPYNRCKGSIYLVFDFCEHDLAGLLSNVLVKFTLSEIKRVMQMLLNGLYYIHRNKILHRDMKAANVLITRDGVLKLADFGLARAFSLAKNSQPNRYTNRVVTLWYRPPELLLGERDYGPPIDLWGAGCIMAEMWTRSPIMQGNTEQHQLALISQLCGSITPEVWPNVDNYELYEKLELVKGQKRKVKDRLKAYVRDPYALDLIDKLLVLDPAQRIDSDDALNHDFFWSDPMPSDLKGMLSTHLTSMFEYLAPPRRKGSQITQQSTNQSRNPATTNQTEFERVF
PROTOCOL NOTES: radiometric filter-binding kinase assay, Kinase HotSpot
ASSAY SETUP: compound 0.5 µM; ATP 10 µM
Entries and their residual activity values follow.
Please give a number only; it is taken to be in %.

ENTRY SMILES: CCCCc1c(-c2ccc(OC)cc2)[nH]c2nccnc12
residual activity [%]: 56.9

ENTRY SMILES: Cc1nc(-c2ccccc2)c(-c2ccncc2)o1
residual activity [%]: 101

Here's the next entry for you.
# query: residual activity of entry NC(=O)c1cccc(-c2cc(Nc3ccc(OC(F)(F)F)cc3)ncn2)c1
106

----------
TESTED ON: EPHA3 (human) (UniProt P29320)
Sequence (P29320 whole entry, looked up): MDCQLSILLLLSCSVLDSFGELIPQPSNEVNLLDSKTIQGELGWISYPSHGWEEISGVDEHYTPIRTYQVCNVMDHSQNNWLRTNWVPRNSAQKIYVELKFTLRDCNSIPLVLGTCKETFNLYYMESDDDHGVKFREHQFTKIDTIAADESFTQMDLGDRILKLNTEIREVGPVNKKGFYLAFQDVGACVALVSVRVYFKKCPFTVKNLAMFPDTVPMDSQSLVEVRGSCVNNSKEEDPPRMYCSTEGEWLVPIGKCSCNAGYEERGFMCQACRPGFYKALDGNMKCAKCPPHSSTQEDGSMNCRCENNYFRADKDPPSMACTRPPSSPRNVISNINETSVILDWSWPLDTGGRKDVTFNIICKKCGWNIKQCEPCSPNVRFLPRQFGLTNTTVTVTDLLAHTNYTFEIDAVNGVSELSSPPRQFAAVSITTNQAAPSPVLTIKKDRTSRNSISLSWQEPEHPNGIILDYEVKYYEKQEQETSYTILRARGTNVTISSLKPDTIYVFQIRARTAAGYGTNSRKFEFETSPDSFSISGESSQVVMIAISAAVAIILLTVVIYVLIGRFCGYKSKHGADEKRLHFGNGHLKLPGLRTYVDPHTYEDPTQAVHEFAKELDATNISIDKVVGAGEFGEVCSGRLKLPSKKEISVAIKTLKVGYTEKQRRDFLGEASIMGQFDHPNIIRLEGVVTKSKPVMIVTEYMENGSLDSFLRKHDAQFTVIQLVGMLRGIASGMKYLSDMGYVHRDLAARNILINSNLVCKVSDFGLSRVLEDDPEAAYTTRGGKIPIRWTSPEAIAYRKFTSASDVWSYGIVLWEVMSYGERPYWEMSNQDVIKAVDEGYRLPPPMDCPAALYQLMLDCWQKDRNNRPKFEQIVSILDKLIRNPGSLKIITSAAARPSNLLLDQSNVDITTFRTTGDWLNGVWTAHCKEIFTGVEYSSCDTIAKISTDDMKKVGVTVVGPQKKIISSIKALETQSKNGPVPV
PROTOCOL NOTES: radiometric filter-binding kinase assay, Kinase HotSpot
ASSAY SETUP: compound 0.5 µM; ATP 10 µM
Entries and their residual activity values follow.
Please give a number only; it is taken to be in %.

Known residual activity results, listed for orientation:
ENTRY SMILES: CS(=O)(=O)CCNCc1ccc(-c2ccc3ncnc(Nc4ccc(OCc5cccc(F)c5)c(Cl)c4)c3c2)o1
UNITS TEXT: %
residual activity: 98.2
//
ENTRY SMILES: O=C(c1cc2cc(O)ccc2[nH]1)c1cc2cc(O)ccc2[nH]1
UNITS TEXT: %
residual activity: 101
//
ENTRY SMILES: Cc1nc(-c2ccccc2)c(-c2ccncc2)o1
UNITS TEXT: %
residual activity: 109
//
ENTRY SMILES: N#Cc1c[nH]c2c[nH]/c(=N\Cc3cccnc3)cc2/c1=N\c1ccc(F)c(Cl)c1
UNITS TEXT: %
residual activity: 122
//
ENTRY SMILES: COc1cc(Nc2c(C#N)cnc3cc(OCCCN4CCN(C)CC4)c(OC)cc23)c(Cl)cc1Cl
UNITS TEXT: %
residual activity: 31.7

Here's the next entry for you.
# query: residual activity of entry N#C/C(=C\c1ccc(O)c(O)c1)C(=O)NCc1ccccc1
97.2

----------
TESTED ON: ABL2 (human)
PROTOCOL NOTES: radiometric filter-binding kinase assay, Kinase HotSpot
ASSAY SETUP: compound 0.5 µM; ATP 10 µM
Entries and their residual activity values follow.
Please give a number only; it is taken to be in %.

Known residual activity results, listed for orientation:
ENTRY SMILES: O=C1c2ccccc2-c2nc3nnnn3nc21
OBSERVED PROPERTY: residual activity
QUANTITATIVE RESULT: 89.7
//
ENTRY SMILES: COc1ccc(Cl)cc1NC(=O)Nc1cc(C)nc2ccccc12
OBSERVED PROPERTY: residual activity
QUANTITATIVE RESULT: 91.2
//
ENTRY SMILES: Cc1nc(-c2ccccc2)c(-c2ccncc2)o1
OBSERVED PROPERTY: residual activity
QUANTITATIVE RESULT: 92.8

# query: residual activity of entry c1ccc2c(-c3ccncc3)c[nH]c2c1
91.9

# query: residual activity of entry CN(C)CCCn1cc(C2=C(c3c[nH]c4ccccc34)C(=O)NC2=O)c2ccccc21
96.3

# query: residual activity of entry COc1cc(Nc2c(C#N)cnc3cc(OCCCN4CCN(C)CC4)c(OC)cc23)c(Cl)cc1Cl
2.19

# query: residual activity of entry N#Cc1c[nH]c2c[nH]/c(=N\Cc3cccnc3)cc2/c1=N\c1ccc(F)c(Cl)c1
87.4

# query: residual activity of entry COc1ccc(S(=O)(=O)N(CCO)c2ccccc2CN(C)C/C=C/c2ccc(Cl)cc2)cc1
97.4

# query: residual activity of entry COc1ccc2c(c1)/C(=C/c1cnc[nH]1)C(O)=N2
90.6

# query: residual activity of entry Cc1cncc2cccc(S(=O)(=O)N3CCCN(C(=O)CN)C[C@H]3C)c12
98.9

# query: residual activity of entry NC(=O)c1cccc(-c2cc(Nc3ccc(OC(F)(F)F)cc3)ncn2)c1
106
